PROCEDURE TEXT: In vivo biodistribution in mice
Parameters: species or system normal CD-1 male mice
REPORTED CONDITIONS: iv, 30 min (0.5 hr) post injection
# Biodistribution: Heart per record follows
# number only, unit % dose/g dropped from output

Look over these answered cases.
# MOLECULE, EXPERIMENTAL RESULT
rows = [
    ("O=C([O-])CN(CCN(CC(=O)[O-])Cc1cc(CCC(=O)NC(P(=O)(O)O)P(=O)(O)O)ccc1[O-])Cc1cc(CCC(=O)O)ccc1[O-].[68Ga+3] [[^68Ga]1a]", 0.22),
    ("O=C([O-])CN(CCN(CC(=O)[O-])Cc1cc(CCC(=O)NC(P(=O)(O)O)P(=O)(O)O)ccc1[O-])Cc1cc(CCC(=O)NC(P(=O)(O)O)P(=O)(O)O)ccc1[O-].[68Ga+3] [[^68Ga]2]", 0.99),
    ("O=C([O-])CN(CCN(CC(=O)[O-])Cc1cc(CCC(=O)NC(P(=O)(O)O)P(=O)(O)O)ccc1[O-])Cc1cc(CCC(=O)NCC(=O)O)ccc1[O-].[68Ga+3] [[^68Ga]1c]", 0.49),
    ("O=C([O-])CN(CCN(CC(=O)[O-])Cc1cc(CCC(=O)N[C@@H](CCC(=O)O)C(=O)O)ccc1[O-])Cc1cc(CCC(=O)NC(P(=O)(O)O)P(=O)(O)O)ccc1[O-].[68Ga+3] [[^68Ga]1f]", 0.23),
    ("[18F-].[Na+] [[^18F]NaF, reference compound]", 0.96),
]

-- ask Give Biodistribution: Heart for O=C([O-])CN(CCN(CC(=O)[O-])Cc1cc(CCC(=O)NC(P(=O)(O)O)P(=O)(O)O)ccc1[O-])Cc1cc(CCC(=O)NCCCCCC(=O)NCCCC[C@H](NC(=O)N[C@@H](CCC(=O)O)C(=O)O)C(=O)O)ccc1[O-].[68Ga+3] [[^68Ga]1g]
-- reply 0.45

-- ask Give Biodistribution: Heart for O=C([O-])CN(CCN(CC(=O)[O-])Cc1cc(CCC(=O)N[C@@H](CC(=O)O)C(=O)O)ccc1[O-])Cc1cc(CCC(=O)NC(P(=O)(O)O)P(=O)(O)O)ccc1[O-].[68Ga+3] [[^68Ga]1e]
-- reply 0.26

* * *

PROCEDURE TEXT: In vivo biodistribution in mice
Parameters: species or system normal CD-1 male mice
REPORTED CONDITIONS: iv, 30 min (0.5 hr) post injection
# Biodistribution: Pancreas per record follows
Field note: include the unit after the figure.

Look over these answered cases.
# COMPOUND, METRIC NAME, EXPERIMENTAL RESULT
rows = [
    ("O=C([O-])CN(CCN(CC(=O)[O-])Cc1cc(CCC(=O)NC(P(=O)(O)O)P(=O)(O)O)ccc1[O-])Cc1cc(CCC(=O)NCC(=O)O)ccc1[O-].[68Ga+3] [[^68Ga]1c]", "Biodistribution: Pancreas", "0.39 ± 0.05 % dose/g"),
    ("O=C([O-])CN1CCN(CC(=O)[O-])CCN(CC(=O)NCCNC(=O)CCc2ccc(O)c(CN(CCN(CC(=O)O)Cc3cc(CCC(=O)NC(P(=O)(O)O)P(=O)(O)O)ccc3O)CC(=O)O)c2)CCN(CC(=O)[O-])CC1.[177Lu+3] [[^177Lu]1h]", "Biodistribution: Pancreas", "0.15 ± 0.03 % dose/g"),
]

-- ask Give Biodistribution: Pancreas for O=C([O-])CN(CCN(CC(=O)[O-])Cc1cc(CCC(=O)NC(P(=O)(O)O)P(=O)(O)O)ccc1[O-])Cc1cc(CCC(=O)NCCNC(=O)CN2CCN(CC(=O)O)CCN(CC(=O)O)CCN(CC(=O)O)CC2)ccc1[O-].[68Ga+3] [[^68Ga]1h]
-- reply 0.09 ± 0.03 % dose/g

* * *

PROCEDURE TEXT: In vivo biodistribution in mice
Set-up: species or system normal CD-1 male mice
REPORTED CONDITIONS: iv, 120 min post injection
METRIC NAME: Biodistribution: Brain (% dose/g)
# number only, unit % dose/g dropped from output

-- ask Give Biodistribution: Brain for O=C([O-])CN(CCN(CC(=O)[O-])Cc1cc(CCC(=O)NC(P(=O)(O)O)P(=O)(O)O)ccc1[O-])Cc1cc(CCC(=O)O)ccc1[O-].[68Ga+3] [[^68Ga]1a]
-- reply 0.01

-- ask Give Biodistribution: Brain for O=C(O)CN1CCN(CC(=O)O)CCN(CC(=O)NC(P(=O)(O)O)P(=O)(O)O)CCN(CC(=O)O)CC1.[68Ga] [[^68Ga]BPAMD, reference compound]
-- reply 0.03

-- ask Give Biodistribution: Brain for [18F-].[Na+] [[^18F]NaF, reference compound]
-- reply 0.04

* * *

PROCEDURE TEXT: In vivo biodistribution in mice
Design: species or system normal CD-1 male mice
REPORTED CONDITIONS: iv, 30 min (0.5 hr) post injection
METRIC NAME: Biodistribution: Kidney (% dose/g)
# number only, unit % dose/g dropped from output

# MOLECULE, UNIT SYMBOL, EXPERIMENTAL RESULT
data = [
    ("O=C([O-])CN(CCN(CC(=O)[O-])Cc1cc(CCC(=O)NC(P(=O)(O)O)P(=O)(O)O)ccc1[O-])Cc1cc(CCC(=O)NCCCNC(=O)CCc2ccc(O)c(CN(CCN(CC(=O)O)Cc3cc(CCC(=O)NC(P(=O)(O)O)P(=O)(O)O)ccc3O)CC(=O)O)c2)ccc1[O-].[68Ga+3] [[^68Ga]3]", "% dose/g", 17.1),
    ("[18F-].[Na+] [[^18F]NaF, reference compound]", "% dose/g", 1.70),
    ("O=C([O-])CN(CCN(CC(=O)[O-])Cc1cc(CCC(=O)N[C@@H](CCC(=O)O)C(=O)O)ccc1[O-])Cc1cc(CCC(=O)NC(P(=O)(O)O)P(=O)(O)O)ccc1[O-].[68Ga+3] [[^68Ga]1f]", "% dose/g", 2.05),
    ("O=C([O-])CN(CCN(CC(=O)[O-])Cc1cc(CCC(=O)NC(P(=O)(O)O)P(=O)(O)O)ccc1[O-])Cc1cc(CCC(=O)NC(P(=O)(O)O)P(=O)(O)O)ccc1[O-].[68Ga+3] [[^68Ga]2]", "% dose/g", 2.98),
]

-- ask Give Biodistribution: Kidney for O=C([O-])CN(CCN(CC(=O)[O-])Cc1cc(CCC(=O)NC(P(=O)(O)O)P(=O)(O)O)ccc1[O-])Cc1cc(CCC(=O)NCC(=O)O)ccc1[O-].[68Ga+3] [[^68Ga]1c]
-- reply 2.58

-- ask Give Biodistribution: Kidney for O=C([O-])CN(CCN(CC(=O)[O-])Cc1cc(CCC(=O)NC(P(=O)(O)O)P(=O)(O)O)ccc1[O-])Cc1cc(CCC(=O)NCCCCCC(=O)NCCCC[C@H](NC(=O)N[C@@H](CCC(=O)O)C(=O)O)C(=O)O)ccc1[O-].[68Ga+3] [[^68Ga]1g]
-- reply 77.1

-- ask Give Biodistribution: Kidney for O=C([O-])CN(CCN(CC(=O)[O-])Cc1cc(CCC(=O)NC(P(=O)(O)O)P(=O)(O)O)ccc1[O-])Cc1cc(CCC(=O)NC2C(O)OC(CO)C(O)C2O)ccc1[O-].[68Ga+3] (centres unmarked) [[^68Ga]1b]
-- reply 3.21

-- ask Give Biodistribution: Kidney for O=C([O-])CN1CCN(CC(=O)[O-])CCN(CC(=O)NCCNC(=O)CCc2ccc(O)c(CN(CCN(CC(=O)O)Cc3cc(CCC(=O)NC(P(=O)(O)O)P(=O)(O)O)ccc3O)CC(=O)O)c2)CCN(CC(=O)[O-])CC1.[177Lu+3] [[^177Lu]1h]
-- reply 1.21

-- ask Give Biodistribution: Kidney for O=C(O)CN1CCN(CC(=O)O)CCN(CC(=O)NC(P(=O)(O)O)P(=O)(O)O)CCN(CC(=O)O)CC1.[68Ga] [[^68Ga]BPAMD, reference compound]
-- reply 1.46

-- ask Give Biodistribution: Kidney for O=C([O-])CN(CCN(CC(=O)[O-])Cc1cc(CCC(=O)NC(P(=O)(O)O)P(=O)(O)O)ccc1[O-])Cc1cc(CCC(=O)O)ccc1[O-].[68Ga+3] [[^68Ga]1a]
-- reply 1.54

-- ask Give Biodistribution: Kidney for C[C@H](NC(=O)CCc1ccc([O-])c(CN(CCN(CC(=O)[O-])Cc2cc(CCC(=O)NC(P(=O)(O)O)P(=O)(O)O)ccc2[O-])CC(=O)[O-])c1)C(=O)O.[68Ga+3] [[^68Ga]1d]
-- reply 2.14

* * *

# Biodistribution: Lung per record follows
PROCEDURE TEXT: In vivo biodistribution in mice
Set-up: species or system normal CD-1 male mice
REPORTED CONDITIONS: iv, 2 min post injection
# number only, unit % dose/g dropped from output

# COMPOUND, METRIC NAME, EXPERIMENTAL RESULT
measured = [
    ("O=C(O)CN1CCN(CC(=O)O)CCN(CC(=O)NC(P(=O)(O)O)P(=O)(O)O)CCN(CC(=O)O)CC1.[68Ga] [[^68Ga]BPAMD, reference compound]", "Biodistribution: Lung", 4.58),
    ("O=C([O-])CN(CCN(CC(=O)[O-])Cc1cc(CCC(=O)NC(P(=O)(O)O)P(=O)(O)O)ccc1[O-])Cc1cc(CCC(=O)NCCNC(=O)CN2CCN(CC(=O)O)CCN(CC(=O)O)CCN(CC(=O)O)CC2)ccc1[O-].[68Ga+3] [[^68Ga]1h]", "Biodistribution: Lung", 4.35),
    ("O=C([O-])CN(CCN(CC(=O)[O-])Cc1cc(CCC(=O)NC(P(=O)(O)O)P(=O)(O)O)ccc1[O-])Cc1cc(CCC(=O)NCC(=O)O)ccc1[O-].[68Ga+3] [[^68Ga]1c]", "Biodistribution: Lung", 5.66),
    ("O=C([O-])CN(CCN(CC(=O)[O-])Cc1cc(CCC(=O)N[C@@H](CCC(=O)O)C(=O)O)ccc1[O-])Cc1cc(CCC(=O)NC(P(=O)(O)O)P(=O)(O)O)ccc1[O-].[68Ga+3] [[^68Ga]1f]", "Biodistribution: Lung", 5.01),
    ("[18F-].[Na+] [[^18F]NaF, reference compound]", "Biodistribution: Lung", 3.37),
    ("O=C([O-])CN(CCN(CC(=O)[O-])Cc1cc(CCC(=O)NC(P(=O)(O)O)P(=O)(O)O)ccc1[O-])Cc1cc(CCC(=O)NCCCNC(=O)CCc2ccc(O)c(CN(CCN(CC(=O)O)Cc3cc(CCC(=O)NC(P(=O)(O)O)P(=O)(O)O)ccc3O)CC(=O)O)c2)ccc1[O-].[68Ga+3] [[^68Ga]3]", "Biodistribution: Lung", 71.6),
    ("O=C([O-])CN(CCN(CC(=O)[O-])Cc1cc(CCC(=O)NC(P(=O)(O)O)P(=O)(O)O)ccc1[O-])Cc1cc(CCC(=O)NC(P(=O)(O)O)P(=O)(O)O)ccc1[O-].[68Ga+3] [[^68Ga]2]", "Biodistribution: Lung", 5.47),
    ("O=C([O-])CN(CCN(CC(=O)[O-])Cc1cc(CCC(=O)NC(P(=O)(O)O)P(=O)(O)O)ccc1[O-])Cc1cc(CCC(=O)O)ccc1[O-].[68Ga+3] [[^68Ga]1a]", "Biodistribution: Lung", 4.28),
]

-- ask Give Biodistribution: Lung for C[C@H](NC(=O)CCc1ccc([O-])c(CN(CCN(CC(=O)[O-])Cc2cc(CCC(=O)NC(P(=O)(O)O)P(=O)(O)O)ccc2[O-])CC(=O)[O-])c1)C(=O)O.[68Ga+3] [[^68Ga]1d]
-- reply 4.83

-- ask Give Biodistribution: Lung for O=C([O-])CN(CCN(CC(=O)[O-])Cc1cc(CCC(=O)NC(P(=O)(O)O)P(=O)(O)O)ccc1[O-])Cc1cc(CCC(=O)NCCCCCC(=O)NCCCC[C@H](NC(=O)N[C@@H](CCC(=O)O)C(=O)O)C(=O)O)ccc1[O-].[68Ga+3] [[^68Ga]1g]
-- reply 4.19

-- ask Give Biodistribution: Lung for O=C([O-])CN(CCN(CC(=O)[O-])Cc1cc(CCC(=O)NC(P(=O)(O)O)P(=O)(O)O)ccc1[O-])Cc1cc(CCC(=O)NC2C(O)OC(CO)C(O)C2O)ccc1[O-].[68Ga+3] (stereo not shown) [[^68Ga]1b]
-- reply 5.11

-- ask Give Biodistribution: Lung for O=C([O-])CN(CCN(CC(=O)[O-])Cc1cc(CCC(=O)O)ccc1[O-])Cc1cc(CCC(=O)O)ccc1[O-].[68Ga+3] [[^68Ga]HBED-CC, reference compound]
-- reply 4.27

-- ask Give Biodistribution: Lung for O=C([O-])CN(CCN(CC(=O)[O-])Cc1cc(CCC(=O)N[C@@H](CC(=O)O)C(=O)O)ccc1[O-])Cc1cc(CCC(=O)NC(P(=O)(O)O)P(=O)(O)O)ccc1[O-].[68Ga+3] [[^68Ga]1e]
-- reply 4.00
